# ASSAYED_SYSTEM: T1, human IFNAR-1 protein (form not stated) (human, UniProt P17181 28-436, limits assumed)
# T1 construct: bispecific ELISA
# T1 sequence (looked up): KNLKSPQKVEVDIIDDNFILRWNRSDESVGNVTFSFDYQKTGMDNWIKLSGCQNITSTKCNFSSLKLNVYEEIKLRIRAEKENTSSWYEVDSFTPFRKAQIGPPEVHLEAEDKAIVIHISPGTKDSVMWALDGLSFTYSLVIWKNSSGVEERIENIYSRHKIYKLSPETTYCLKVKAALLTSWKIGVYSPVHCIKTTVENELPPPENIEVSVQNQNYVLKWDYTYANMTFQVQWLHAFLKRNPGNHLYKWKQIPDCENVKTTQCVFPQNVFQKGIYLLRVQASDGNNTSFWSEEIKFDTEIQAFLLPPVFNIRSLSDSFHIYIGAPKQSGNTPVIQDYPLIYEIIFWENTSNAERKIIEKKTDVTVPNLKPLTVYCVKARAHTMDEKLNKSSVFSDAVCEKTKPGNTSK
# TEST_PROTOCOL: affinity measurement of purified IgG at different concentrations (method not named)
PARAMETER_MEASURED: kon (M⁻¹ s⁻¹)
Just the number please, in M⁻¹ s⁻¹, no unit attached.

Record excerpt, results attached:
[
  {
    "BINDER": "8G11-H4L3 (antibody, V domains shown, Humanized IgG expressed in HEK293; also called VH4 + VL3 (8G11)) VH: QVQLVQSGAEVVKPGASVKLSCKGSGFNIKDYYMHWVKQAPGQGLEWIGRIDPEDAETKYAPKFQGRATITADTSTSTAYLELSSLRSEDTAVYYCARGGNFYVMDYWGQGTLVTVSS VL: DIQLTQSPSFLSTSVGDRVTITCKASQNVGTNVVWYQQKPGKSPKVLIYSASYRVSGVPSRFSGSGSGTEFTLIISSVQPEDFATYFCQQKNNYPYTFGQGTKLEIK",
    "PARAMETER_MEASURED": "kon",
    "UNIT_TAG": "M⁻¹ s⁻¹",
    "VAL": 340000
  },
  {
    "BINDER": "8G11-H2L1 (antibody, V domains shown, Humanized IgG expressed in HEK293; also called VH2 + VL1 (8G11)) VH: QVQLVQSGAEVVKPGASVKVSCKGSGFNIKDYYMHWVRQAPGQGLEWIGRIDPEDAETKYAPKFQGRVTMTADTSTSTVYMELSSLRSEDTAVYYCARGGNFYVMDYWGQGTLVTVSS VL: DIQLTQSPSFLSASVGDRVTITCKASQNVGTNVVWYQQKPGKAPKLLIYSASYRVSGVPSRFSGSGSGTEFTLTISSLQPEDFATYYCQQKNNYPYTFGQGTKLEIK",
    "PARAMETER_MEASURED": "kon",
    "UNIT_TAG": "M⁻¹ s⁻¹",
    "VAL": 229000
  }
]

Could you now consider this next binder?
Which kon is reported for this binder? 8G11-H1L1 (antibody, V domains shown, Humanized IgG expressed in HEK293; also called VH1 + VL1 (8G11)) VH: QVQLVQSGAEVKKPGASVKVSCKASGFNIKDYYMHWVRQAPGQGLEWMGRIDPEDAETKYAPKFQGRVTMTRDTSTSTVYMELSSLRSEDTAVYYCARGGNFYVMDYWGQGTLVTVSS VL: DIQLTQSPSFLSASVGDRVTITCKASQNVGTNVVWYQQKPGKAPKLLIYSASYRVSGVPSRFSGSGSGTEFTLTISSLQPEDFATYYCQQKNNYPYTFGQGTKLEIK
161000
